So I've got a bunch of compounds here, and I need their logD at 1 h values.
experiment-description: Log D assay (1-octanol/buffer shake flask, LC/MS/MS)
Assay type: physicochemical
experimental-context: 1-octanol/phosphate buffer; 1-octanol / 0.1 M phosphate buffer pH 7.4

Query (compound): `Cn1nc(C(F)(F)F)cc1C(=O)NC(C)(C)c1cc(-c2ccnc(C(F)(F)F)c2)nn1C` ; field requested: logD at 1 h
3

Query (compound): `Cn1nc(C(F)(F)F)cc1C(=O)NC1(c2cc(-c3ccnc(C(F)(F)F)c3)nn2C)CCC1` ; field requested: logD at 1 h
4.4

----------
So I've got a bunch of molecules here, and I need their IC50 values.
target-under-test: KCNT1 (KNa1.1, Slack) (Homo sapiens)
experiment-description: KCNT1 patch clamp assay (SyncroPatch 384PE, tetracycline inducible HEK-TREX cell line)
experimental-context: WT KCNT1, HEK-TREX cells, perforated patch, step from -80 mV to 0 mV, room temperature; read-out: WT (KCNT1 inhibition IC50)
Protocol: Inhibition of KCNT1 (KNa1.1, Slack) was evaluated using a tetracycline inducible cell line (HEK-TREX). Currents were recorded using the SyncroPatch 384PE automated, patch clamp system. […] Current was recorded in perforated patch mode (10 μM escin) from a population of cells. […] Currents were recorded at room temperature. […] Mean current was measured during the step to 0 mV. […] The average mean current from 3 sweeps was calculated and the percent inhibition of each compound was calculated. […]

Query (molecule): `Cn1nc(C(F)(F)F)cc1C(=O)NC1(c2cc(-c3ccnc(C(F)(F)F)c3)nn2C)CCC1` ; field requested: IC50
≤ 1 µM

Query (molecule): CC(NC(=O)c1cc(C(F)(F)F)nn1C)c1cc(N2CCCCC2)nn1C (stereo not shown) ; field requested: IC50
1 to 20 µM

Query (molecule): COc1ccc(-c2cc(C(C)NC(=O)c3cc(C(F)(F)F)nn3C)n(C)n2)cn1 (stereo not shown) ; field requested: IC50
≤ 1 µM

Query (molecule): CC(NC(=O)c1cc(C(F)(F)F)nn1C)c1cc(NC2CCCC2)nn1C (stereo not shown) ; field requested: IC50
≥ 20 µM

----------
experiment-description: Kinetic solubility assay (shake flask, HPLC-UV)
Format: physicochemical
experimental-context: aqueous buffer, kinetic from dmso stock, 50 mM pH 7.4 phosphate buffer, room temperature
assay-endpoint: solubility kinetic at 24 h

Query (compound): `Cn1nc(C(F)(F)F)cc1C(=O)NC1(c2cc(-c3ccnc(C(F)(F)F)c3)nn2C)CCC1` ; field requested: solubility kinetic at 24 h
< 1.6 µM

Query (compound): `Cn1nc(C(F)(F)F)cc1C(=O)NC(C)(C)c1cc(-c2ccnc(C(F)(F)F)c2)nn1C` ; field requested: solubility kinetic at 24 h
< 1.6 µM

----------
target-under-test: KCNT1 (KNa1.1, Slack) (Homo sapiens, UniProt Q5JUK3)
Sequence (Q5JUK3 1-1230): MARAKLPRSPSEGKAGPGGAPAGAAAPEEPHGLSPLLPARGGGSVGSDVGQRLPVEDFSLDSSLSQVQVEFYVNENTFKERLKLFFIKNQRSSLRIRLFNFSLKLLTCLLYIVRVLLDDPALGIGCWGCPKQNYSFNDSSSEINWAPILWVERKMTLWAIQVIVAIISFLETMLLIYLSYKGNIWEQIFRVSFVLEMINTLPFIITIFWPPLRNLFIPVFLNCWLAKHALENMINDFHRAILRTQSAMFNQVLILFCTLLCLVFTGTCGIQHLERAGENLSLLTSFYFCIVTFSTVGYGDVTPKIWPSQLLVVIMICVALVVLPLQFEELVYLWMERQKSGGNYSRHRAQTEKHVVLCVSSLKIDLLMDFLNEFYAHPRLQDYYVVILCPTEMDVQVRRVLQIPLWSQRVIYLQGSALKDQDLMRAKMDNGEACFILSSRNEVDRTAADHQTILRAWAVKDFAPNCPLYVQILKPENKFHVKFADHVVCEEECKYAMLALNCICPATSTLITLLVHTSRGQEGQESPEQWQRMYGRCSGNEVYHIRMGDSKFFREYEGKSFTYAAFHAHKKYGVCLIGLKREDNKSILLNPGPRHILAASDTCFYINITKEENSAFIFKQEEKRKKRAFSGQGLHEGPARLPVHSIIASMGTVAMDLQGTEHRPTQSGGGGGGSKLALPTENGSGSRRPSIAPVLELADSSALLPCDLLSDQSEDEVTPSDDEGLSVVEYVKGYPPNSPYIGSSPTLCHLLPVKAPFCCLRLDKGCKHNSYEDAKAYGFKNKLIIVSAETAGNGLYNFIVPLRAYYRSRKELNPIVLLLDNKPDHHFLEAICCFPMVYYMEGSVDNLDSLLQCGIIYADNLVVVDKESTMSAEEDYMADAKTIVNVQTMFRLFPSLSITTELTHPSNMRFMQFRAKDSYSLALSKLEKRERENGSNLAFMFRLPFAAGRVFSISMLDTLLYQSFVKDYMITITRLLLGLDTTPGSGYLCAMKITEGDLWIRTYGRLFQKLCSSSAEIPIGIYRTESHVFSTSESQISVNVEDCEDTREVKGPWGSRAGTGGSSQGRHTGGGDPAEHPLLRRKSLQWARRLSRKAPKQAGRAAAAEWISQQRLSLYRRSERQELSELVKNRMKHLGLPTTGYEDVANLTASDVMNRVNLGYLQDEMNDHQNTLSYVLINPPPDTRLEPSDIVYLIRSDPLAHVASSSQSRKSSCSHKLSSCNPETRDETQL
experiment-description: KCNT1 patch clamp assay (SyncroPatch 384PE, tetracycline inducible HEK-TREX cell line)
experimental-context: WT KCNT1, HEK-TREX cells, perforated patch, step from -80 mV to 0 mV, room temperature; read-out: WT (KCNT1 inhibition IC50)
pIC50: −log10 of the molar value.
assay-endpoint: pIC50

Query (molecule): `Cn1nc(C(F)(F)F)cc1C(=O)NC1(c2cc(-c3ccnc(C(F)(F)F)c3)nn2C)CC1` ; field requested: pIC50
≥ 6.00

Query (molecule): `CCn1nc(-c2ccnc(C(F)(F)F)c2)cc1CNC(=O)c1cc(C(F)(F)F)nn1C` ; field requested: pIC50
≥ 6.00

Query (molecule): Cc1cccc(-c2cc(C(C)NC(=O)c3cc(C(F)(F)F)nn3C)n(C)n2)n1 (centres unmarked) ; field requested: pIC50
4.70 to 6.00

Query (molecule): CC(NC(=O)c1cc(C(F)(F)F)nn1C)c1cc(-c2ccc(C#N)nc2)nn1C (centres unmarked) ; field requested: pIC50
≤ 4.70

Query (molecule): CC(NC(=O)c1cc(C(F)(F)F)nn1C)c1cc(N(C)c2ccccc2)nn1C (centres unmarked) ; field requested: pIC50
4.70 to 6.00

Query (molecule): CC(NC(=O)c1cc(C(F)(F)F)nn1C)c1cc(-c2ccccc2)nn1C (single isomer, unassigned) [Compound 1010] ; field requested: pIC50
4.70 to 6.00

Query (molecule): `COc1cc(-c2cc(CNC(=O)c3cc(C(F)(F)F)nn3C)n(C)n2)ccn1` ; field requested: pIC50
≥ 6.00

Query (molecule): CC(NC(=O)c1cc(C(F)(F)F)nn1C)c1cc(C(F)(F)F)nn1C (single isomer, unassigned) [Compound 1014] ; field requested: pIC50
4.70 to 6.00
